- Test system: Plasmodium falciparum
- assay_protocol: Primary screen in NF54 nanoGlo assay, in single point, at 2uM, 72h
- Format: functional, Erythrocyte
- recorded_conditions: timepoint 72 hour
Screen size: about 150,000 compounds; about 540 (0.36%) showed an effect of 50% or more. What follows is part of a selection rich in strong results, with near analogues and random picks from the rest.
measured_quantity: % Inhibition (%)
Give the quantity in %, number only.

compound | unit_text | meas_value
CN1CCC(N2CCC(CN(Cc3ccncc3)C3CCOCC3)CC2)CC1 | % | 0
COc1ccc(CN(Cc2ccncc2)CC2CCN(C3CCN(C)CC3)CC2)c(F)c1 | % | 88
CN(CC(=O)NCc1ccco1)c1nnc(N2CCCC2=O)s1 | % | 73
c1cc(N2CC[C@]3(CCOC3)C2)c2sccc2n1 | % | -10
CCc1ccc(NC(=O)[C@H](C)N2CCC(NS(=O)(=O)c3cccs3)CC2)cc1 | % | 76

[in] Entry under review: CCc1cc(NC(=O)N[C@@H](C)c2nc(C(F)(F)F)no2)n(C)n1 . Reported % Inhibition?
[out] -7

[in] Entry under review: CN(Cc1ncc(-c2ccccc2)o1)c1ccccc1 . Reported % Inhibition?
[out] -6

[in] Entry under review: C[C@@H](C(=O)Nc1c(F)cccc1F)N1CCC(NS(=O)(=O)c2cccs2)CC1 . Reported % Inhibition?
[out] -7

[in] Entry under review: O=C(C[n+]1nc(-c2n[n+](CC(=O)c3ccccc3)c3n2CCCCC3)n2c1CCCCC2)c1ccccc1 . Reported % Inhibition?
[out] 6

[in] Entry under review: C[C@@H](C(=O)Nc1ccc(F)cc1)N1CCC(NS(=O)(=O)c2cccs2)CC1 . Reported % Inhibition?
[out] 32

[in] Entry under review: Cc1nn(C(C)(C)C)c2nc(C3CC3)cc(C(=O)N(C)Cc3cccc(C#N)c3)c12 . Reported % Inhibition?
[out] -7

[in] Entry under review: N[C@@H](c1ccc2c(c1)CCO2)c1cc(Cl)ccc1Cl . Reported % Inhibition?
[out] 0

[in] Entry under review: CCOc1ccc(-[n+]2cc(-c3ccccc3)n3c2CCC3)cc1 . Reported % Inhibition?
[out] 68

[in] Entry under review: COc1cccc([C@H]2CC(O)=Nc3c2ncn3-c2cccnc2)c1OC(C)C . Reported % Inhibition?
[out] 28

[in] Entry under review: Cc1nccc(NC(=O)N2C3CCC2CC(CCF)C3)n1 (centres undefined) . Reported % Inhibition?
[out] -5

[in] Entry under review: C[C@@H](C(=O)NC(C)(C)c1noc(C(N)=O)n1)c1ccccc1 . Reported % Inhibition?
[out] 2

[in] Entry under review: C[n+]1ccc(-c2ncc(-c3ccccc3)o2)c2ccccc21 . Reported % Inhibition?
[out] 75

[in] Entry under review: CC1CCCN(C(=O)C2CCC2)C1CN (centres undefined) . Reported % Inhibition?
[out] -3

[in] Entry under review: COC(=O)c1ccc(C)c(OCc2cn3ccccc3c2C#N)c1 . Reported % Inhibition?
[out] -17

[in] Entry under review: COCCN1CCC(CN(Cc2ccncc2)Cc2cc(C)c(C)o2)CC1 . Reported % Inhibition?
[out] -30

[in] Entry under review: CN(CC(=O)NCCCc1ccco1)c1nnc(N2CCCC2=O)s1 . Reported % Inhibition?
[out] -11

[in] Entry under review: CCC(CC)n1nc(C(=O)NCC23CCCN2CCC3)cc1C . Reported % Inhibition?
[out] -15

[in] Entry under review: CC1CC(NCCc2cc(F)cc3c2OCOC3)CN1C1CC1 (centres undefined) . Reported % Inhibition?
[out] -5

====

// Z score lookup, one value per entry
- Test system: Plasmodium falciparum
- assay_protocol: Primary screen in NF54 nanoGlo assay, in single point, at 2uM, 72h
- Type: functional, Erythrocyte
- recorded_conditions: timepoint 72 hour
About 540 (0.36%) of roughly 150,000 compounds showed an effect of 50% or more. Shown is part of a subset that was picked to be rich in strong results.
Could you keep your reply to the number by itself?

Please review the entries below; each comes with its answer.
compound | Z score
O=C(CNC(=O)c1ccc(C(F)(F)F)cc1)Nc1cnc2c(c1)COCC2 | -4.64
CN(C)c1nc2cc(NC(=O)Cc3noc4ccccc34)ccc2o1 | 2.38
CC(C)(C)OC(=O)C1C[C@@H](N)[C@@H](n2cc(C(C)(C)C)nn2)C1 (stereo partly drawn) | 1.24
CC(C)Cc1cnc(NC(=O)N[C@@]2(C)CCOC2)s1 | -1.23
Cc1ccc(Cl)cc1N1CCN(C(=O)N2CCC(C)CC2)CC1 | -0.01

[in] Entry under review: Cc1ccc(CCN2CCC[C@@H]2C(=O)O)cc1 . Reported Z score?
[out] -0.5

[in] Entry under review: Cc1c(C(=O)O)nn(-c2ccc(F)cc2)c1Oc1ccc(NC(=O)CC(C)C)cc1S(=O)(=O)NCC(C)C . Reported Z score?
[out] 1.93

[in] Entry under review: CCCc1nc2ncnn2c(O)c1NC(=O)Nc1ccccc1Br . Reported Z score?
[out] -0.44

====

- Tested on: Plasmodium falciparum
- assay_protocol: Primary screen in NF54 nanoGlo assay, in single point, at 2uM, 72h
- Assay type: functional, Erythrocyte
- recorded_conditions: timepoint 72 hour
Hit rate of the full screen: of about 150,000 compounds, about 540 (0.36%) showed an effect of 50% or more. This excerpt belongs to a sample that is enriched for strong results.
measured_quantity: Z score
Could you keep your reply to the number by itself?

compound | tested_target | measured_quantity | meas_value
COC[C@H]1CN(C)CC12CCN(C(=O)Cc1ccc(Cl)cc1)CC2 | Plasmodium falciparum | Z score | -1.07
Nc1ncc(C(=O)N2CCC3(CCCCCC3)C2)s1 | Plasmodium falciparum | Z score | -17.77
CCc1noc(CCNC(=O)Nc2cc(C)nn2C2CCCCC2)n1 | Plasmodium falciparum | Z score | 0.5
COc1cc(C)c(S(=O)(=O)N2CCc3cc4ccccc4nc32)cc1C | Plasmodium falciparum | Z score | 1.11
Cc1ccc(Nc2nc(N)nc(Cn3cnc(C)c3C)n2)cc1 | Plasmodium falciparum | Z score | 0.51
Oc1ccc2ncccc2c1[C@@H](Nc1ccccn1)c1cccc(Cl)c1 | Plasmodium falciparum | Z score | -3.9
CCC1=Nc2ccccc2N=C(NC(=O)C(C)C)[C@H]1c1ccc(F)cc1 | Plasmodium falciparum | Z score | -2.85
Oc1ccc2ncccc2c1[C@@H](Nc1ccccn1)c1cccc(Br)c1 | Plasmodium falciparum | Z score | -12.1

[in] Entry under review: COc1ccc2[nH]c3c(c2c1)CC(C(=O)O)NC3c1ccc(OC)c(CN2CCN(c3ccccc3F)CC2)c1 (stereo not drawn) . Reported Z score?
[out] -11.3

[in] Entry under review: CN1CCC(NC(=O)NCC2(CO)CCC2)C1c1ccccc1 (stereo not drawn) . Reported Z score?
[out] 2.33

[in] Entry under review: Cc1oc(-c2ccn[nH]2)cc1S(=O)(=O)Nc1ccc(F)c(Cl)c1 . Reported Z score?
[out] -0.01

====

- Tested on: Plasmodium falciparum
- assay_protocol: Primary screen in NF54 nanoGlo assay, in single point, at 2uM, 72h
- Format: functional, Erythrocyte
- recorded_conditions: timepoint 72 hour
The campaign covered roughly 150,000 compounds. About 540 (0.36%) showed an effect of 50% or more. The list comes from a sample in which strong results are over-represented; it also holds close analogues and randomly drawn compounds.
// % Inhibition lookup, one value per entry
Give the quantity in %, number only.

Please review the entries below; each comes with its answer.
compound | unit_text | meas_value
COc1ccc2cc1Oc1cccc(c1)CO[C@H]1CCN(C(=O)CN3CCC(O)CC3)C[C@H]1NC(=O)CC2 | % | -23
Cc1c(F)cccc1NC(=O)N1CCN(C2=CC3=N[C@@H](C)CN3C=N2)CC1 | % | 57
CCOc1cc(-c2cc(-c3ccccc3O)nc3ccc4ccccc4c23)cc(Br)c1O | % | 82
O=C(NC(C1CC1)C1CC1)c1coc(COc2cccc(F)c2)n1 | % | -6

[in] Entry under review: COc1ccc(-c2cc3nc(C)cc(N4CCC(C(=O)NCc5ccccc5)CC4)n3n2)cc1 . Reported % Inhibition?
[out] 4

[in] Entry under review: CCn1c(CN[C@H](c2ccccc2)c2cccs2)nc2cc(S(=O)(=O)N3CCCCC3)ccc21 . Reported % Inhibition?
[out] 14

====

- Tested on: Plasmodium falciparum
- assay_protocol: Primary screen in NF54 nanoGlo assay, in single point, at 2uM, 72h
- Type: functional, Erythrocyte
- recorded_conditions: timepoint 72 hour
In all, about 150,000 compounds went through this assay and about 540 (0.36%) showed an effect of 50% or more. Shown is part of a subset that was picked to be rich in strong results.
// % Inhibition lookup, one value per entry
Could you give the number and then its unit, please?

Please review the entries below; each comes with its answer.
compound | tested_target | % Inhibition
Cc1nc2ccccn2c(=O)c1CCN[C@@H](C)c1cccc(-n2cccn2)c1 | Plasmodium falciparum | 0%
CN(CCO)C[C@@H]1CN(C(=O)C2(c3ccccc3)CCCC2)C[C@@H]1CO | Plasmodium falciparum | -27%
COc1cc(C)c(-c2ccc(C(=O)N3CCCCCC3)cc2)cn1 | Plasmodium falciparum | -10%
O=C(CN(CC1CCCO1)C(=O)C1CC1(Cl)Cl)N1CCCC1 (stereo not given) | Plasmodium falciparum | -19%

Read the next record carefully.
[in] Entry under review: CCOc1cc(Cl)ccc1C(=O)NC1CCN(C[C@H]2CCOC2)CC1 . Reported % Inhibition?
[out] 38%
